Biological target: WDR5 (Homo sapiens (Human))
Experiment: Surface Plasmon Resonance (SPR) assay, KD and residence time
Format: binding
Conditions: surface plasmon resonance (SPR) assay; read-out: WDR5 binding affinity (KD)
Protocol: (i) Surface Plasmon Resonance (SPR) Assay The lifetime of a drug on its target is determined by two rate constants: the association rate constant (kon) and the dissociation rate constant (koff). […] Drug-target residence time is defined as the reciprocal of koff (τ=1/koff), making the residence time a parameter that is easily measured by routine in vitro assay methods.
Listing of entries alongside the reported pKd.
For clarity, pKd is expressed as the negative log10 of concentration in mol/L.

Example entries and their recorded answers appear below.
{"compound": "CC1CN(c2cc(F)c(-c3ccc(N4CCOCC4)cc3)cc2NC(=O)c2nn(C)c3ccccc23)CCN1C (stereo in doubt) [Example 117]", "measured value": 7.37}
{"compound": "C[C@@H]1CN(c2cc(F)c(C3=CCN(C(=O)OC(C)(C)C)C3)cc2NC(=O)c2cn(C)c(=O)cc2C(F)(F)F)C[C@H](C)N1C [Example 326]", "measured value": 8.52}
{"compound": "C[C@H]1CN(c2cc(F)c(-c3cnc(N4CCN(C)CC4)nc3)cc2NC(=O)c2ccc(F)cc2C(F)(F)F)C[C@H](C)N1C (racemic) [Example 382]", "measured value": 6.93}
{"compound": "C[C@@H]1CN(c2cc(F)c(-c3ccnc(C#N)c3)cc2NC(=O)c2c[nH]c(=O)cc2C(F)(F)F)C[C@H](C)N1C [Example 133]", "measured value": 8.88}
{"compound": "C[C@@H]1CN(c2cc(F)c(-c3cnc(N4CCOCC4)nc3)cc2NC(=O)c2ccccc2Cl)C[C@H](C)N1C [Example 109]", "measured value": 6.76}

Now turn to the next compound.
Prompt: Name the reported pKd value associated with the compound COc1ncc(-c2cc(NC(=O)c3c[nH]c(=O)cc3C(F)(F)F)c(N3C[C@@H](C)N(C)[C@@H](C)C3)cc2F)cc1C(F)(F)F [Example 136]
Completion: 9.33

###

// reported Kd for each item listed
target: WDR5 (Homo sapiens (Human), UniProt P61964); assay: Surface Plasmon Resonance (SPR) assay, KD and residence time; format: binding; settings: surface plasmon resonance (SPR) assay; read-out: WDR5 binding affinity (KD)
Note: a bare number is incomplete; add the unit.

Before answering, review these 5 worked examples.
{"molecule": "CC(=O)Nc1ccc(-c2cc(NC(=O)c3cn(C)c(=O)cc3C(F)F)c(N3CCN(C)C(C)C3)cc2F)cn1 (stereo in doubt)", "measured value": "4.32 nM"}
{"molecule": "C[C@@H]1CN(c2cc(F)c(-c3ccc(N4CCOCC4)c(F)c3)cc2NC(=O)c2cn(C)c(=O)cc2C(F)(F)F)C[C@H](C)N1C", "measured value": "5.16 nM"}
{"molecule": "CC(C)C1CN(c2ncc(-c3cc(NC(=O)c4c[nH]c(=O)cc4C(F)(F)F)c(N4C[C@@H](C)N(C)[C@@H](C)C4)cc3F)cn2)CCO1 (stereo in doubt)", "measured value": "2.28 nM"}
{"molecule": "C[C@@H]1CN(c2cc(F)c(C3=CCN(c4ncccn4)CC3)cc2NC(=O)c2c[nH]c(=O)cc2C(F)(F)F)C[C@H](C)N1C", "measured value": "1.39 nM"}
{"molecule": "COc1ccc(-c2cc(NC(=O)c3c[nH]c(=O)cc3C(F)(F)F)c(N3C[C@@H](C)N(C)[C@@H](C)C3)cc2F)cc1", "measured value": "2.44 nM"}

Prompt: Please report the recorded Kd for C[C@@H]1CN(c2cc(F)c(C3=CCN(c4ncccn4)C3)cc2NC(=O)c2c[nH]c(=O)cc2C(F)(F)F)C[C@H](C)N1C .
Completion: 2.56 nM

Prompt: Need Kd, item CC1COCCN1c1ncc(-c2cc(NC(=O)c3c[nH]c(=O)cc3C(F)(F)F)c(N3C[C@@H](C)N(C)[C@@H](C)C3)cc2F)cn1 (stereo in doubt)
Completion: 2.08 nM

Prompt: Please look up its Kd: C[C@@H]1CN(c2cc(F)c(-c3cnc(N(C)C4CCOC4)nc3)cc2NC(=O)c2c[nH]c(=O)cc2C(F)(F)F)C[C@H](C)N1C (stereo in doubt)
Completion: 0.634 nM

Prompt: // query Kd value for entry COc1cc(-c2cc(NC(=O)c3c[nH]c(=O)cc3C(F)(F)F)c(N3C[C@@H](C)N(C)[C@@H](C)C3)cc2F)cc(C)n1
Completion: 2.81 nM

Prompt: Look at this molecule and give its reported Kd. CC(=O)Nc1ccc(-c2cc(NC(=O)c3c[nH]c(=O)cc3C(F)(F)F)c(N3C[C@@H](C)N(C)[C@@H](C)C3)cc2F)cn1
Completion: 0.199 nM

Prompt: Which Kd value belongs to C[C@@H]1CN(c2cc(F)c(-c3cccc(N4CCOCC4)c3)cc2NC(=O)c2c[nH]c(=O)cc2C(F)(F)F)C[C@H](C)N1C ?
Completion: 0.703 nM

Prompt: Looking for the measured Kd of COc1cc(-c2cc(NC(=O)c3c[nH]c(=O)cc3C(F)(F)F)c(N3C[C@@H](C)N(C)[C@@H](C)C3)cc2F)cnc1OC , can you help?
Completion: 2.41 nM

Prompt: I'd like to know its Kd. The molecule in question is C[C@@H]1CN(c2cc(F)c(C3=CCN(Cc4cnn(C)c4)CC3)cc2NC(=O)c2c[nH]c(=O)cc2C(F)(F)F)C[C@H](C)N1C
Completion: 1.43 nM

Prompt: Any idea what Kd was measured for COc1ccc(CN2CC=C(c3cc(NC(=O)c4c[nH]c(=O)cc4C(F)(F)F)c(N4C[C@@H](C)N(C)[C@@H](C)C4)cc3F)CC2)cc1 ?
Completion: 0.54 nM

Prompt: // Kd lookup, key: C[C@@H]1CN(c2cc(F)c(C3=CCN(S(C)(=O)=O)C3)cc2NC(=O)c2c[nH]c(=O)cc2C(F)(F)F)C[C@H](C)N1C
Completion: 0.665 nM

Prompt: Look up Kd: CCN(C)[C@@H]1CN(c2cc(F)c(-c3cnc(N4CCOCC4)nc3)cc2NC(=O)c2c[nH]c(=O)cc2C(F)(F)F)C[C@H]1F
Completion: 12.4 nM

Prompt: Entry C[C@@H]1CN(c2cc(F)c(-c3cnc(N4CCOCC4)nc3)cc2NC(=O)c2cc(Cl)c(F)c(Cl)c2)C[C@H](C)N1C has what Kd?
Completion: 2.71 nM

Prompt: Returns the measured Kd for the input molecule. Input: C[C@@H]1CN(c2cc(F)c(-c3cccc(CN4CCC(F)CC4)c3)cc2NC(=O)c2c[nH]c(=O)cc2C(F)(F)F)C[C@H](C)N1C
Completion: 5.12 nM

Prompt: Entry C[C@@H]1CN(c2cc(F)c(-c3ccc4c(c3)OCCN4C)cc2NC(=O)c2c[nH]c(=O)cc2C(F)(F)F)C[C@H](C)N1C has what Kd?
Completion: 0.623 nM

Prompt: Which Kd reading was recorded for the molecule C[C@@H]1CN(c2cc(F)c(-c3cnc(N4CCN(C(=O)CCC(=O)O)CC4)nc3)cc2NC(=O)c2c[nH]c(=O)cc2C(F)(F)F)C[C@H](C)N1C ?
Completion: 0.789 nM

###

The entries below are paired with their reported Kd.
target: WDR5 (Homo sapiens (Human)); test: Surface Plasmon Resonance (SPR) assay, KD and residence time; format: binding; conditions: surface plasmon resonance (SPR) assay; read-out: WDR5 binding affinity (KD)

# count of solved cases: 2
{"chemical smiles": "C[C@@H]1CN(c2cc(F)c(-c3cnc(N4CCOCC4)nc3)cc2NC(=O)c2cc(Cl)cc(C(F)(F)F)c2)C[C@H](C)N1C", "Kd": "20.6 nM"}
{"chemical smiles": "C[C@@H]1CN(c2cc(F)c(-c3cnc(N4CCOCC4)nc3)cc2NC(=O)c2ccccc2C(F)(F)F)C[C@H](C)N1C", "Kd": "16.2 nM"}

With those in mind, consider the next molecule.
Prompt: Give its Kd value. Item: C[C@@H]1CN(c2cc(F)c(C3=CCN(c4ncc(C=O)cn4)CC3)cc2NC(=O)c2c[nH]c(=O)cc2C(F)(F)F)C[C@H](C)N1C
Completion: 0.685 nM

###

target: WDR5 (Homo sapiens (Human)); assay: Surface Plasmon Resonance (SPR) assay, KD and residence time; format: binding; conditions: surface plasmon resonance (SPR) assay; read-out: WDR5 binding affinity (KD)
Listing: pKd of selected compounds
Just so you know, pKd here is -log10 of the concentration in molar units; reply with that number alone.

# example entries with known answers
{"compound": "C[C@@H]1CN(c2cc(F)c(C3=CCN(c4ncc(CO)cn4)CC3)cc2NC(=O)c2c[nH]c(=O)cc2C(F)(F)F)C[C@H](C)N1C [Example 394]", "measured value": 9.11}
{"compound": "C[C@@H]1CN(c2cc(F)c(C3=CCN(C(=O)CC(C)(C)C)CC3)cc2NC(=O)c2c[nH]c(=O)cc2C(F)(F)F)C[C@H](C)N1C [Example 255]", "measured value": 8.70}
{"compound": "C[C@@H]1CN(c2cc(F)c(-c3ccnc(N4CCOCC4)c3)cc2NC(=O)c2c[nH]c(=O)cc2C(F)(F)F)C[C@H](C)N1C [Example 83]", "measured value": 9.41}
{"compound": "C[C@@H]1CN(c2cc(F)c(-c3ccc(F)nc3)cc2NC(=O)c2c[nH]c(=O)cc2C(F)(F)F)C[C@H](C)N1C [Example 257]", "measured value": 8.77}
{"compound": "C[C@@H]1CN(c2cc(F)c(-c3ccc(O)nc3)cc2NC(=O)c2c[nH]c(=O)cc2C(F)(F)F)C[C@H](C)N1C [Example 157]", "measured value": 8.67}

For the next question, use this compound.
Prompt: Please give the measured pKd for this compound: C[C@@H]1CN(c2cc(F)c(-c3cnc(N4CCOCC4)nc3)cc2NC(=O)c2ccc(F)cc2Cl)C[C@H](C)N1C [Example 87]
Completion: 8.09

// provenance: patent US11319299B2
